Target: TRIM25 CC-PRY/SPRY (UniProt Q14258 189-630)
Sequence (Q14258 189-630): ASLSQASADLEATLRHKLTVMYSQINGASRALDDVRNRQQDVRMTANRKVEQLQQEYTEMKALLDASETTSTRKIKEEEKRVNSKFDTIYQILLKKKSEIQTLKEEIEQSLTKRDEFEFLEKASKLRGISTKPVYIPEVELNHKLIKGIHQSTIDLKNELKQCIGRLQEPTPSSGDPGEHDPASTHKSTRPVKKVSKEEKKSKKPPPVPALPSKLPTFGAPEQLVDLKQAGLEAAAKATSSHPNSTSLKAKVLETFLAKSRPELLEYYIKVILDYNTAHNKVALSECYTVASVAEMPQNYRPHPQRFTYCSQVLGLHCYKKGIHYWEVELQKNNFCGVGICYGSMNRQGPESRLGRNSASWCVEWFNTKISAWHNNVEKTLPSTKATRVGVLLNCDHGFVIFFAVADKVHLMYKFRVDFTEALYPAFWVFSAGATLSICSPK
Test: ITC; highest affinity site; ITC and filter binding: 20 mM MES pH 6.5, 75 mM NaCl, 0.5 mM TCEP (ITC 20 C, filter binding on ice); NMR: 20 mM Na phosphate pH 6.5, 150 mM NaCl, 2 mM TCEP, 293 K
Conditions: protein: recombinant; tags: His-Trx (removed); chain copies: 2; hairpin
ASSAY ENDPOINT: Kd
Please make sure the unit comes right after the number.

Look at this binder and give its reported Kd. GUAUAGUUUAAAAGGAGAUAACUAUAC (structured_RNA) [pre-let-7a-1@2]
72 nM
